B1: H2-Kb / Ed21 (parent complex)
chain 1: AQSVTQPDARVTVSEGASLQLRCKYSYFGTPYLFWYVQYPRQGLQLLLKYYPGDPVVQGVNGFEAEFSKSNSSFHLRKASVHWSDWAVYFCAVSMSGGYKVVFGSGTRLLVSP
chain 2: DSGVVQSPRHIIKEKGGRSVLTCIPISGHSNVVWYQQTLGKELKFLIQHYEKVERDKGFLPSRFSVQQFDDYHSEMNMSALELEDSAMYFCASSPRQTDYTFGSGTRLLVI
chain 3: not shown
chain 4: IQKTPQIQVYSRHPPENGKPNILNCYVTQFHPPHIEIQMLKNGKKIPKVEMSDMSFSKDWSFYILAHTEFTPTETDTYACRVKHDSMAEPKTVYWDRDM
chain 5: SIINFEKL

variants of: B1; assay: % of reporter cells activated (NFAT-GFP), raw; further: test concentration or dose not given here
Categories are assigned from the measured ratio to parent using these intervals: range 1 = under 0.8, range 2 = from 0.8 up to 0.9, range 3 = 0.9 and over

// known answers, use as guide
>>> print(df.to_string())
   variant_annotation  group_label
0         chain 5 K7T      range 1
1         chain 5 F5R      range 3
2         chain 5 E6F      range 1
3         chain 5 S1W      range 1
4         chain 5 I2S      range 3

Request: # bin lookup: classify chain 5 F5G by its ratio to parent
Result: range 2
